Molecular target: TRPM8 (Rattus norvegicus, UniProt Q8R455)
Construct: from tissue; host or cells: whole animal, female SD rats (in vivo)
Sequence (Q8R455 whole entry): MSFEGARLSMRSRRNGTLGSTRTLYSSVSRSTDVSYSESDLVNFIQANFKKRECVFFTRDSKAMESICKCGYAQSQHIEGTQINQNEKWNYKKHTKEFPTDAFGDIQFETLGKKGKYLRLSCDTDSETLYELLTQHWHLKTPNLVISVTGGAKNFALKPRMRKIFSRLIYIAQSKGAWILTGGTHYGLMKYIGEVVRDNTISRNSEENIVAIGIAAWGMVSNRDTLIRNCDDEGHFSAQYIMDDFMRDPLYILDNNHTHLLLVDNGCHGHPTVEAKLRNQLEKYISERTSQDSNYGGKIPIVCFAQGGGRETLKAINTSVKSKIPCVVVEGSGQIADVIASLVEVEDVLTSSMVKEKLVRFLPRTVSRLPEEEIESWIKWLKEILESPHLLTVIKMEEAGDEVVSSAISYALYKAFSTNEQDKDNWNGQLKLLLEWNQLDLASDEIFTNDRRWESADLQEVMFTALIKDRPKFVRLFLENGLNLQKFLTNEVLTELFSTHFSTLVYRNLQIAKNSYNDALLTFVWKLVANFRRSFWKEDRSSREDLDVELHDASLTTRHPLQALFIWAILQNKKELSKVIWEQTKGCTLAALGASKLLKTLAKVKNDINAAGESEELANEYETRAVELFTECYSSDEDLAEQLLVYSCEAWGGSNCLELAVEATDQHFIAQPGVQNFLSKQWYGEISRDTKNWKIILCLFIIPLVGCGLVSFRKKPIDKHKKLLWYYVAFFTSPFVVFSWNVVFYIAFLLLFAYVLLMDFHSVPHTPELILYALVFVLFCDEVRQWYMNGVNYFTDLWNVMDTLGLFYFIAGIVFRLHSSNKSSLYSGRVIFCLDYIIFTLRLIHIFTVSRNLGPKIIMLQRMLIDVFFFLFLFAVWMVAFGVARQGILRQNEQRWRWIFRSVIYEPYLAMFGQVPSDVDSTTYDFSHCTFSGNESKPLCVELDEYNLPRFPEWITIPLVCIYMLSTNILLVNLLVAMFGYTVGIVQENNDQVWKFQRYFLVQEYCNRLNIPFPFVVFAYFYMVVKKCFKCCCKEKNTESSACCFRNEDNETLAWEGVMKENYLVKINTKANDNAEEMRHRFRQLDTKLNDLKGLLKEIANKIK
Test: Confirmation test of inhibitory effects on icilin-induced wet-dog shakes
Assay type: in vivo
Details: female SD rats, oral dose 3 mg/kg, icilin 1 mg/kg i.p. 1 hour after dosing, shakes counted for 5 minutes
MEASURED ATTRIBUTE: % inhibition of Wet-Dog Shake (%)
One number for each entry, in %.

Consider the reported % inhibition of Wet-Dog Shake for these molecules:
O=C(N[C@H](Cc1ccccn1)[C@H](O)CO)c1cccc(F)c1-c1n[nH]c(-c2ccc(F)cc2)c1F [Example 1-156]; 99
O=C(N[C@@H](CO)C(O)c1ccccn1)c1cccc(Cl)c1-c1cc(-c2ccc(F)cc2)[nH]n1 (stereo partly shown) [Example 1-210]; 47
O=C(N[C@H](Cn1cccn1)[C@@H](O)CF)c1cccc(F)c1-c1cc(-c2ccc(F)cc2)[nH]n1 [Example 50-8]; 82

Record % inhibition of Wet-Dog Shake for all entries; do not skip any.
1. O=C(N[C@H](Cn1cccn1)[C@H](F)CO)c1cccc(F)c1-c1cc(-c2ccc(Cl)cc2)[nH]n1 [Example 43-44]
2. NC(=O)[C@@H](Cc1ccccn1)NC(=O)c1cccc(F)c1-c1cc(-c2ccc(F)cc2)[nH]n1 [Example 37-1]
3. O=C(N[C@H](Cc1ccccn1)[C@H](O)CO)c1ccccc1-c1cc(-c2ccc(F)cc2)[nH]n1 [Example 1-185]
4. C[C@](O)(CO)[C@@H](Cc1ccccn1)NC(=O)c1cccc(F)c1-c1cc(-c2ccc(Cl)cc2)[nH]n1 [Example 1-219]
5. O=C(N[C@@H](CO)Cc1ncccc1C(F)(F)F)c1cccc(F)c1-c1cc(-c2ccc(F)cc2)[nH]n1 [Example 1-197]
6. C[C@H](O)C[C@H](NC(=O)c1cccc(F)c1-c1cc(-c2ccc(F)cc2)[nH]n1)C(O)c1ccccn1 (stereo partly shown) [Example 54-4]
7. O=C(N[C@@H](CCO)C(O)c1ccccn1)c1cccc(F)c1-c1cc(-c2ccc(F)cc2)[nH]n1 (stereo partly shown) [Example 54-3]
8. O=C(N[C@@H](CO)Cc1ccccn1)c1ccccc1-c1cc(-c2ccc(F)cc2)[nH]n1 [Example 1-58]

### Response
69
38
56
45
44
50
62
86

###

Target: TRPM8 (Rattus norvegicus, UniProt Q8R455)
Construct: from tissue; host or cells: whole animal, female SD rats (in vivo)
Assay: Confirmation test of inhibitory effects on icilin-induced wet-dog shakes
Format: in vivo
Details: female SD rats, oral dose 1 mg/kg, icilin 1 mg/kg i.p. 1 hour after dosing, shakes counted for 5 minutes
Source text: Further, TRPM8 inhibitory activity can be evaluated by the efficacy inhibiting the wet-dog shake action which is induced by the administration of Icilin, TRPM8 agonist. Furthermore, an effect on overactive bladder (OAB) can be evaluated by an elongation of micturition interval against overactive bladder induced by acetic acid in accordance with a similar method described in J. Urol., 2001, 166, 1142. Confirmation Test of Inhibitory Effects on Icilin-induced Wet-dog Shakes […]
Consider the following compounds; for each one, report its % inhibition of Wet-Dog Shake.
Give bare numbers, in %.

CO[C@H](CO)[C@@H](Cc1ccccn1)NC(=O)c1cccc(F)c1-c1cc(-c2ccc(Cl)cc2)[nH]n1; 90

# map each compound to its % inhibition of Wet-Dog Shake
1. O=C(N[C@H](Cc1ccccn1)[C@H](O)CO)c1ccccc1-c1n[nH]c(-c2ccc(F)cc2)c1F
2. COC[C@@H](O)[C@@H](Cc1ccccn1)NC(=O)c1cccc(F)c1-c1cc(-c2ccc(F)cc2)[nH]n1

### Response
1: 100; 2: 72

### Prompt Could you share what % inhibition of Wet-Dog Shake was measured for `CO[C@H](CO)[C@@H](Cc1ncccn1)NC(=O)c1ccccc1-c1cc(-c2ccc(F)cc2)[nH]n1` , tested on TRPM8 (Rattus norvegicus, UniProt Q8R455)?
### Response 82
